# target.or.system: Serine/threonine-protein phosphatase 2A catalytic subunit alpha
# assay.remarks: Inhibition of protein phosphatase 2A (PP2A) was determined by standard phosphorylase a inhibition assay
metric.name: IC50 (µM)

Some compounds with recorded IC50:
structure.notation	target.or.system	readout.number
CO[C@@H]([C@H](O)CC(=O)[C@@H](C)[C@@H](O)CC[C@@H](C)[C@@H]1O[C@]2(CC[C@@H](C)[C@H](CC[C@H](C)C(C)=O)O2)CC[C@@H]1C)[C@H](OC(=O)C[C@@H](O)/C=C(\C)C(=O)O)C(C)C	Serine/threonine-protein phosphatase 2A catalytic subunit alpha	4
CO[C@@H]([C@H](O)CC(=O)[C@@H](C)[C@@H](O)CC[C@@H](C)[C@@H]1O[C@]2(CC[C@@H](C)[C@H](CC[C@H](C)C(C)=O)O2)CC[C@@H]1C)[C@H](OC(=O)C[C@](C)(O)C(=O)O)C(C)C	Serine/threonine-protein phosphatase 2A catalytic subunit alpha	29

I. CO[C@@H]([C@H](O)CC(=O)[C@@H](C)[C@@H](O)CC[C@@H](C)[C@@H]1O[C@]2(CC[C@@H](C)[C@H](CC[C@H](C)C(C)=O)O2)CC[C@@H]1C)[C@H](OC(=O)CCCP(=O)(O)O)C(C)C
II. CO[C@@H]([C@H](O)CC(=O)[C@@H](C)[C@@H](O)CC[C@@H](C)[C@@H]1O[C@]2(CC[C@@H](C)[C@H](CC[C@H](C)C(C)=O)O2)CC[C@@H]1C)[C@H](OC(=O)C[C@@](C)(O)C(=O)O)C(C)C
Asked: Of I versus II , which is the one with smaller reported IC50? Give the label of your selection.
Given back: II
(II: 100 µM, I: 300 µM)
